# TEST_TARGET: pooled human IgG (human IgG1, 2, 3 and 4)
The entries below are paired with their reported Enzyme Activity Endpoint Assay: Fc.
Numeric only. Scale: ng/µL

PRT-253 (protein) MVTSVWTKGVTPPTNFTYGEDVLHAPYVANQGWYDITKTFNGKDDLLCGAATAGNMLHWWFDQNKEQIENYLKKHPEKQKINFNGEQMFDVKEAIDTKDSQLDSKLFEYFLEKAFPNLSTKHLGVFPDHVIDMFINGYRLSLLNHGPTPVKRGSKDPRGGIFDAVFTRGDQSKLLTNRHDFKEKTLKEISDLIKQELTEGKALGISHTYANVRINHVINLWGADFDAEGNLEAIYVTDSDSNKSIGMKKYFVGVNSDGKVAISAKEIEEDNIGAQVLGLFTLSTGQDIWNQTN	334

Okay, next one:
Enquiry: Would you mind telling me what Enzyme Activity Endpoint Assay: Fc value was observed for PRT-559 (protein) MANQEIRYSEETPKTITSIWTKGVTPPTDFIKTEDVLHAPYVANQGWYDITKTFNGKDDLLCGAATAGNMLHWWFDQNKEEIENYLKKHPEKQKINFNGEQMFDVKEAIDTKDSQTDSALFEYFKDKAFPYLSTKHLGVFPDHVIDMFINGYRLSLTNHGPTPVKDGTKDPRGGIFDAVFTRGDQTKLLTERHDFKEKTLNEISDLIKQELTEGKALGLSHTYANVRINHVINLWGADFNSEGNLEAIYVTDSDSNASIGMKKYYVGVNAAGKVAISAKEIEDDNIGAQVLGLFTLSTGQDIWEQTNLEHHHHHH ?
Return: 158
